Entries and their measured activity, negative = inhibition follow.
tested.system: Cytochrome P450 3A4 (Homo sapiens) (UniProt P08684)
Sequence (P08684 whole entry, looked up): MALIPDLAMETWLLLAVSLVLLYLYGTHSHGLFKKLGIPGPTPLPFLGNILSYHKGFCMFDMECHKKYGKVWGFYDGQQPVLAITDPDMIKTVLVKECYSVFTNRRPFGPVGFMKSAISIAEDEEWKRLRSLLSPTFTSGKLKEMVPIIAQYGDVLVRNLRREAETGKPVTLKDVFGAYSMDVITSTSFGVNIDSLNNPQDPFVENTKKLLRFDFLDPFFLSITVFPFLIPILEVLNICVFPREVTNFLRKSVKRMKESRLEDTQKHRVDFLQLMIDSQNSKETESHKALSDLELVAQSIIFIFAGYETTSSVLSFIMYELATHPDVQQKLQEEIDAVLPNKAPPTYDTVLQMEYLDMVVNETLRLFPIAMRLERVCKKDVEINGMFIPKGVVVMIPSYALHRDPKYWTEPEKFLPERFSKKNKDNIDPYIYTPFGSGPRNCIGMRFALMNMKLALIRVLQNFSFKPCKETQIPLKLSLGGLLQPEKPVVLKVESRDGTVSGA
procedure.details: Cytochrome panel assay with activity outcomes; as to activity, negative = inhibition: % is scaled to controls: 0 for no effect and ±100 for the full control effect
run.conditions: recombinant CYP, pro-luciferin dealkylation, luminescence, p450-cyp3a4; series mostly up to 57.1 µM
In all, about 16,000 compounds went through this assay and about 5,100 (32%) were called active. About 25% were inconclusive and are not listed. This is one part of the list.

>>> df
                            compound_smiles                   reported_value
0                               CC(C)(CN)CN   -13.3% [at 11.4 µM] (inactive)
1                  COc1ccc(/C=N\NC(=O)O)cc1   -13.4% [at 11.4 µM] (inactive)
2  COc1ccc(-c2nc(N)c3ncn([C@H]4O[C@@H](CO)[C@@H](O)[C@@H]4O)c3n2)cc1  -0.494% [at 11.4 µM] (inactive)
3                    CN(C)CCNS(=O)(=O)N(C)C   -13.5% [at 11.4 µM] (inactive)
4   Cc1c(Cl)c(S(N)(=O)=O)cc2c1=NC=NS=2(=O)O     -13% [at 11.4 µM] (inactive)

// returns activity, negative = inhibition for O=[N+]([O-])c1nccn1C[C@H](O)CN1CCCCC1 with Cytochrome P450 3A4 (Homo sapiens) (UniProt P08684); value = -20.2% [at 11.4 µM] (inactive)

// returns activity, negative = inhibition for CC1(C)OCC([C@H](O)C2=CCCCC2=O)CO1 with Cytochrome P450 3A4 (Homo sapiens) (UniProt P08684); value = -7.04% [at 11.4 µM] (inactive)

// returns activity, negative = inhibition for Oc1c(Br)cc(Br)cc1CN(Cc1cc(Br)cc(Br)c1O)C1CCCCC1 with Cytochrome P450 3A4 (Homo sapiens) (UniProt P08684); value = -22.2% [at 11.4 µM] (inactive)

// returns activity, negative = inhibition for CC[n+]1c(P(=O)([O-])c2ccccc2)[nH]c2ccccc21 with Cytochrome P450 3A4 (Homo sapiens) (UniProt P08684); value = -3.39% [at 2.29 µM] (inactive)

// returns activity, negative = inhibition for CC(C)CNC(=O)CCCc1c[nH]c2ccccc12 with Cytochrome P450 3A4 (Homo sapiens) (UniProt P08684); value = 14.6% [at 2.29 µM] (inactive)

// returns activity, negative = inhibition for CC(C)CC(=O)N1CCC(N2CCN(c3ccccc3)CC2)CC1 with Cytochrome P450 3A4 (Homo sapiens) (UniProt P08684); value = 6.02% [at 2.29 µM] (inactive)

---

tested.system: Cytochrome P450 3A4 (Homo sapiens)
procedure.details: Cytochrome panel assay with activity outcomes
run.conditions: recombinant CYP, pro-luciferin dealkylation, luminescence, p450-cyp3a4; series mostly up to 57.1 µM
Method: The P450 gene superfamily is involved in the metabolism and clearance of xenobiotics. This assay used various human CYP P450 isozymes to measure the dealkylation of various pro-luciferin substrates to luciferin. The luciferin is then measured by luminescence after the addition of a luciferase detection reagent. […] Inhibitors and some substrates limit the production of luciferin, and decrease measured luminescence. […] 8, Detection, 1 sec, ViewLux luminescent read […]
The campaign covered roughly 16,000 compounds. About 5,100 (32%) were called active. Roughly 25% stayed inconclusive and do not appear here. The call rests on the fitted dose curve; in most records, active means well fitted curve in the direction sought with a large enough effect; inconclusive means small, poorly fitted or top-dose-only effect, or effect the other way; inactive means no such curve, though single readings can be large or run the other way. The list shows a part of the results.
Parameter call: string, one of active, inactive

>>> print(df.to_string())
                            compound_smiles  category
0                          C[C@@H](N)C(=O)O  inactive
1  O=C(Nc1cccc(NC(=O)c2ccc(-c3cccc(Br)c3)o2)c1)c1ccco1    active
2                    c1cc(CSSCc2ccncc2)ccn1    active
3  COc1cc([N+](=O)[O-])ccc1NC(=O)CCCOc1cccc(C)c1    active
4  COc1ccccc1NC(=O)Cn1cncc1-c1ccc([N+](=O)[O-])cc1    active
5  O=C(c1ccncc1)N1CCC[C@@]2(CCN(Cc3ccccc3)C2)C1    active

Now for a further compound.
stdin: Could you kindly confirm the outcome this assay logged for CCCNC(=O)OC[C@@H]1O[C@H](CCO/N=C\[C@@H](C)[C@H](OCc2ccccc2)C(C)C)C=C[C@@H]1Oc1ccc(OC)cc1 ?
stdout: active

---

tested.system: Cytochrome P450 3A4 (Homo sapiens) (UniProt P08684)
procedure.details: Cytochrome panel assay with activity outcomes
run.conditions: recombinant CYP, pro-luciferin dealkylation, luminescence, p450-cyp3a4; series mostly up to 57.1 µM
The campaign covered roughly 16,000 compounds. About 5,100 (32%) were called active. Roughly 25% stayed inconclusive and do not appear here. Calls follow the shape of the dose curve; as a rule, active = well fitted curve in the direction sought with a large enough effect; inconclusive = small, poorly fitted or top-dose-only effect, or effect the other way; inactive = no such curve, though single readings can be large or run the other way. Some of the results follow.
Parameter call: string, one of True = active, False = inactive

Past entries and their recorded results:
compound	category
CN(C)c1ccc(-c2nc(NCCc3cnc[nH]3)c3ccccc3n2)cc1	True
COc1ccc(CNc2nc(-c3cccc(NS(C)(=O)=O)c3)nc3ccccc23)c(OC)c1	True

stdin: Could you kindly confirm the outcome this assay logged for N#Cc1cccc(-c2nc(Nc3ccccc3)c3ccccc3n2)c1 ?
stdout: False

stdin: Could you kindly confirm the outcome this assay logged for Cc1cccc(NC(=S)N(CCc2nc3cc(C)c(C)cc3[nH]2)Cc2cccnc2)c1 ?
stdout: True

stdin: Could you kindly confirm the outcome this assay logged for CCOC(=O)c1ccc(CNC(=O)C2CCCCC2C(=O)OCC(F)(F)F)o1 (stereo unspecified) ?
stdout: False

stdin: Could you kindly confirm the outcome this assay logged for COc1ccc(-n2nnnc2/C=C\Nc2ccccc2C(=O)c2ccccc2)cc1 ?
stdout: False

stdin: Could you kindly confirm the outcome this assay logged for CNc1nc(-c2cccc(C#N)c2)nc2ccccc12 ?
stdout: True

stdin: Could you kindly confirm the outcome this assay logged for CC1CCN(CC[C@H]2CCCN2S(=O)(=O)c2cccc(O)c2)CC1 ?
stdout: False

stdin: Could you kindly confirm the outcome this assay logged for COc1ccc(-n2ccnc2SCC(=O)Nc2ccc(OC)cc2OC)cc1 ?
stdout: True

stdin: Could you kindly confirm the outcome this assay logged for COc1ccccc1CNc1nc(-c2cccc(C#N)c2)nc2ccccc12 ?
stdout: True

stdin: Could you kindly confirm the outcome this assay logged for COc1ccc(C(=O)N2CCC3(CC2)CN(C(=O)Nc2ccccc2)C3)cc1 ?
stdout: False

stdin: Could you kindly confirm the outcome this assay logged for O=C(CCCn1c(=S)[nH]c2ccc(Br)cc2c1=O)N1CCN(c2ccccn2)CC1 ?
stdout: True

stdin: Could you kindly confirm the outcome this assay logged for COCC(=O)N1CCC2(CCCN(c3ncccn3)C2)CC1 ?
stdout: False

stdin: Could you kindly confirm the outcome this assay logged for C=Cc1c(C)c2cc3[nH]c(cc4nc(cc5nc(cc1[nH]2)C(C)=C5CCC(=O)O)C(CCC(=O)O)=C4C)c(C)c3C=C ?
stdout: False

stdin: Could you kindly confirm the outcome this assay logged for CCOc1cc(CNc2ccc(OC)cc2)cc(Br)c1OCC(=O)NC(C)(C)C ?
stdout: True

stdin: Could you kindly confirm the outcome this assay logged for Cn1cccc1C(=O)N1CCC2(CC1)CN(C(=O)Nc1ccccc1)C2 ?
stdout: False

stdin: Could you kindly confirm the outcome this assay logged for CCOc1ccc(NC(=O)N2CCC(C(N)=O)(N3CCCCC3)CC2)cc1 ?
stdout: False

stdin: Could you kindly confirm the outcome this assay logged for Cc1ccc(C)c(NC(=S)N(CCc2nc3cc(C)c(C)cc3[nH]2)Cc2cccnc2)c1 ?
stdout: True

stdin: Could you kindly confirm the outcome this assay logged for COc1ccc(NC(=O)CSC2=NC(=O)CC(C)=N2)cc1 ?
stdout: False

stdin: Could you kindly confirm the outcome this assay logged for CNc1ccnc(-c2ccccc2CN(C)C)n1 ?
stdout: False

---

tested.system: Cytochrome P450 3A4 (Homo sapiens) (UniProt P08684)
procedure.details: Cytochrome panel assay with activity outcomes
run.conditions: recombinant CYP, pro-luciferin dealkylation, luminescence, p450-cyp3a4; series mostly up to 57.1 µM
Screen size: about 16,000 compounds; about 5,100 (32%) were called active. Not shown: some 25% with an inconclusive outcome. The call rests on the fitted dose curve; in most records, active means well fitted curve in the direction sought with a large enough effect; inconclusive means small, poorly fitted or top-dose-only effect, or effect the other way; inactive means no such curve, though single readings can be large or run the other way. Some of the results follow.
Parameter call: string, one of label 1 = active, label 0 = inactive

>>> df
                                   compound  category
0  COc1ccc(CNc2ncnc3ccc(-c4ccoc4)cc23)c(OC)c1   label 1
1  COc1ccccc1CCn1c(=O)c(-c2cn(C)c3ccccc23)nc2cncnc21   label 1
2  C/C(CCC(=O)OC[C@@H]1O[C@H](C#Cc2ccccc2)C=C[C@@H]1Oc1ccc(C)cc1)=N/O[C@@H](C)CN1CCCCc2nc(C)c(C)cc21   label 1
3   CC(C)(C)C(=O)N1CCc2cc(-c3csc(N)n3)ccc21   label 1
4        COc1ccc2nc(SCC(=O)c3ccco3)[nH]c2c1   label 1
5  C[C@H]1C2=C3C(CC[C@H]4C(OCc5ccc(F)cc5C(F)(F)F)OC[C@](C)([C@@H]34)N(C(=O)OC(C)(C)C)C2)C(CO)C1CO (stereo partly drawn)   label 1

stdin: Could you kindly confirm the outcome this assay logged for CNC(=O)Oc1ccc2c(c1)[C@@]1(C)CCN(C)[C@@H]1N2C ?
stdout: label 0

stdin: Could you kindly confirm the outcome this assay logged for Cc1ccccc1-c1cncnc1Nc1ccccc1 ?
stdout: label 1

stdin: Could you kindly confirm the outcome this assay logged for O=C(CN1CCCCC1)Nc1nnc(-c2ccc([N+](=O)[O-])cc2)s1 ?
stdout: label 1

stdin: Could you kindly confirm the outcome this assay logged for COc1ccc2[nH]cc(CCNc3ncncc3-c3ccccc3CN(C)C)c2c1 ?
stdout: label 1

stdin: Could you kindly confirm the outcome this assay logged for COc1ccccc1CNc1ncnc2ccc(-c3ccoc3)cc12 ?
stdout: label 1

stdin: Could you kindly confirm the outcome this assay logged for COc1ccc(C(C)=O)c(OC(=O)c2ccco2)c1 ?
stdout: label 0

stdin: Could you kindly confirm the outcome this assay logged for COc1ccc2[nH]cc(CCNc3ncncc3-c3ccccc3C(F)(F)F)c2c1 ?
stdout: label 1

stdin: Could you kindly confirm the outcome this assay logged for CC1Cc2ccccc2N1C(=O)Cn1cc([N+](=O)[O-])cn1 (stereo not drawn) ?
stdout: label 0

stdin: Could you kindly confirm the outcome this assay logged for COC(=O)Nc1nc2ccc(SC(C)C)cc2[nH]1 ?
stdout: label 0

stdin: Could you kindly confirm the outcome this assay logged for COc1cc(C)nc(N2CCCC(C(=O)Nc3cc(Cl)ccc3OC)C2)n1 (stereo not drawn) ?
stdout: label 1

stdin: Could you kindly confirm the outcome this assay logged for CCOC(=O)NC(=O)CSc1nc2ccc(OCC)cc2[nH]1 ?
stdout: label 1

Source listed as PubChem BioAssay AID1851.
